Hey, just so you know, these numbers are from ChEMBL document CHEMBL1141803.

Assign Activity to each entry below.
- Test system: Mus musculus
- Assay name: Antihyperlipidemic activity in olive oil-treated ddY mouse assessed as serum triglyceride level at 50 mg/kg, po after 4 hrs
- Format: functional
Respond with the bare value in mg/dL.

stdin: Short answer please: Activity, Mus musculus, entry C/C=C\C(=O)O[C@H]1[C@H](OC(C)=O)[C@]2(CO)[C@H](O)C[C@]3(C)C(=CC[C@@H]4[C@@]5(C)CC[C@H](O[C@@H]6O[C@H](C(=O)O)[C@@H](O)[C@H](O[C@@H]7OC[C@H](O)[C@H](O)[C@H]7O[C@@H]7OC[C@@H](O)[C@H](O)[C@H]7O)[C@H]6O[C@@H]6O[C@H](CO)[C@H](O)[C@H](O)[C@H]6O)C(C)(C)C5CC[C@]43C)[C@@H]2CC1(C)C (some centres undefined)
stdout: 392.9

stdin: Hello, I am looking for reported Activity with Mus musculus for C/C=C\C(=O)O[C@H]1[C@H](O)[C@]2(COC(C)=O)[C@H](O)C[C@]3(C)C(=CC[C@@H]4[C@@]5(C)CC[C@H](O[C@@H]6O[C@H](C(=O)O)[C@@H](O)[C@H](O[C@@H]7OC[C@H](O)[C@H](O)[C@H]7O[C@@H]7OC[C@@H](O)[C@H](O)[C@H]7O)[C@H]6O[C@@H]6O[C@H](CO)[C@H](O)[C@H](O)[C@H]6O)[C@@](C)(C=O)C5CC[C@]43C)[C@@H]2CC1(C)C (some centres undefined) [THEASAPONIN E2] . Could you help?
stdout: 507.5

stdin: Reported Activity for Mus musculus, given C/C=C\C(=O)O[C@H]1[C@H](OC(C)=O)[C@]2(CO)[C@H](O)C[C@]3(C)C(=CC[C@@H]4[C@@]5(C)CC[C@H](O[C@@H]6O[C@H](C(=O)O)[C@@H](O)[C@H](O[C@@H]7OC[C@H](O)[C@H](O)[C@H]7O[C@@H]7OC[C@@H](O)[C@H](O)[C@H]7O)[C@H]6O[C@@H]6O[C@H](CO)[C@H](O)[C@H](O)[C@H]6O)[C@@](C)(C=O)C5CC[C@]43C)[C@@H]2CC1(C)C (some centres undefined) [THEASAPONIN E1] ?
stdout: 312.2

stdin: Enter reported Activity observed with Mus musculus for CC1(C)C[C@H]2C3=CC[C@@H]4[C@@]5(C)CC[C@H](O[C@@H]6O[C@H](C(=O)O)[C@@H](O)[C@H](O[C@@H]7OC[C@H](O)[C@H](O)[C@H]7O[C@@H]7OC[C@@H](O)[C@H](O)[C@H]7O)[C@H]6O[C@@H]6O[C@H](CO)[C@H](O)[C@H](O)[C@H]6O)[C@@](C)(C=O)C5CC[C@@]4(C)[C@]3(C)C[C@@H](O)[C@@]2(CO)[C@@H](O)[C@@H]1O (some centres undefined)
stdout: 410.5

---

- Tested on: Mus musculus
- Assay name: Antihyperlipidemic activity in olive oil-treated ddY mouse assessed as serum triglyceride level at 100 mg/kg, po after 2 hrs
- Assay type: functional
Assign Activity to each entry below.

stdin: Returns the measured Activity for the input molecule. Input: C/C=C\C(=O)O[C@H]1[C@H](OC(C)=O)[C@]2(CO)[C@H](O)C[C@]3(C)C(=CC[C@@H]4[C@@]5(C)CC[C@H](O[C@@H]6O[C@H](C(=O)O)[C@@H](O)[C@H](O[C@@H]7OC[C@H](O)[C@H](O)[C@H]7O[C@@H]7OC[C@@H](O)[C@H](O)[C@H]7O)[C@H]6O[C@@H]6O[C@H](CO)[C@H](O)[C@H](O)[C@H]6O)C(C)(C)C5CC[C@]43C)[C@@H]2CC1(C)C (some centres undefined)
stdout: 158.3 mg/dL

stdin: Fill blank: measured Activity of the molecule C/C=C\C(=O)O[C@H]1[C@H](OC(C)=O)[C@]2(CO)[C@H](O)C[C@]3(C)C(=CC[C@@H]4[C@@]5(C)CC[C@H](O[C@@H]6O[C@H](C(=O)O)[C@@H](O)[C@H](O[C@@H]7OC[C@H](O)[C@H](O)[C@H]7O[C@@H]7OC[C@@H](O)[C@H](O)[C@H]7O)[C@H]6O[C@@H]6O[C@H](CO)[C@H](O)[C@H](O)[C@H]6O)[C@@](C)(C=O)C5CC[C@]43C)[C@@H]2CC1(C)C (some centres undefined) [THEASAPONIN E1] is ____.
stdout: 342.3 mg/dL

stdin: Can you share its Activity? I mean this molecule: C/C=C\C(=O)O[C@H]1[C@H](O)[C@]2(COC(C)=O)[C@H](O)C[C@]3(C)C(=CC[C@@H]4[C@@]5(C)CC[C@H](O[C@@H]6O[C@H](C(=O)O)[C@@H](O)[C@H](O[C@@H]7OC[C@H](O)[C@H](O)[C@H]7O[C@@H]7OC[C@@H](O)[C@H](O)[C@H]7O)[C@H]6O[C@@H]6O[C@H](CO)[C@H](O)[C@H](O)[C@H]6O)[C@@](C)(C=O)C5CC[C@]43C)[C@@H]2CC1(C)C (some centres undefined) [THEASAPONIN E2]
stdout: 509.4 mg/dL

stdin: Look at this molecule and give its reported Activity. CC1(C)C[C@H]2C3=CC[C@@H]4[C@@]5(C)CC[C@H](O[C@@H]6O[C@H](C(=O)O)[C@@H](O)[C@H](O[C@@H]7OC[C@H](O)[C@H](O)[C@H]7O[C@@H]7OC[C@@H](O)[C@H](O)[C@H]7O)[C@H]6O[C@@H]6O[C@H](CO)[C@H](O)[C@H](O)[C@H]6O)[C@@](C)(C=O)C5CC[C@@]4(C)[C@]3(C)C[C@@H](O)[C@@]2(CO)[C@@H](O)[C@@H]1O (some centres undefined)
stdout: 440.8 mg/dL
